measured-target: AChE (Electrophorus electricus, UniProt O42275)
Sequence (O42275 24-633): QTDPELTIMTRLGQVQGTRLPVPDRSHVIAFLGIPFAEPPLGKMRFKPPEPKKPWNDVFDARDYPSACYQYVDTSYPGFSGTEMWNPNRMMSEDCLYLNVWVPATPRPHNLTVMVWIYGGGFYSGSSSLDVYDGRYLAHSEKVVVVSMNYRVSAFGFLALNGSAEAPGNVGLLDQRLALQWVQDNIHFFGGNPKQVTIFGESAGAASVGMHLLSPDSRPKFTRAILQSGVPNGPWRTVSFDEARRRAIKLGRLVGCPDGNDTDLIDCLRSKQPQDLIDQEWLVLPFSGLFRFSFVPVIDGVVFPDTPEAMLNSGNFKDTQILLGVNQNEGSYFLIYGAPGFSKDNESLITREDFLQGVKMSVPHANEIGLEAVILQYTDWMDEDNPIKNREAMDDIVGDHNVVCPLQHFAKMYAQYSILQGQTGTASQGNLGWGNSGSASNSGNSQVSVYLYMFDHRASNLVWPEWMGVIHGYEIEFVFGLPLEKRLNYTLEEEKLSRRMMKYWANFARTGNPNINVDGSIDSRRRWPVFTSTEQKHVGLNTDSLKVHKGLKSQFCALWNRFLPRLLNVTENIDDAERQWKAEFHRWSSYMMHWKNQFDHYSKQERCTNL
test-summary: Cholinesterase inhibition assay
Type: biochemical, electric eels
protocol-conditions: read-out: IC50 AChE
measured-endpoint: pIC50
Note on pIC50: it is the negative log10 of concentration, concentration in mol/L.

mol_smiles=Cc1ccc(F)c(CNS(=O)(=O)c2cccc3cccnc23)c1 measured_target="AChE (Electrophorus electricus, UniProt O42275)" quantitative_readout=5.59

Would you kindly look at the next entry?
Request: Answer with reported pIC50 of O=S(=O)(NCc1cc(F)cc(C(F)(F)F)c1)c1cccc2cccnc12
Response: 5.51

----------
measured-target: AChE (Electrophorus electricus, UniProt O42275)
test-summary: Cholinesterase inhibition assay
Type: biochemical, electric eels
Entries and their IC50 values follow.
Please append the unit to your numeric answer.

// solved cases for IC50 follow
compound="O=S(=O)(Nc1cccc(I)c1)c1cccc2cccnc12 [a1, N-(3-Iodophenyl)quinoline-8-sulfonamide]" measured_endpoint=IC50 result="1110 nM"
compound=O=S(=O)(NCc1ccc(Cl)cc1Cl)c1cccc2cccnc12 measured_endpoint=IC50 result="1400 nM"
compound="N#Cc1ccc(NS(=O)(=O)c2cccc3cccnc23)cc1 [a9, N-(4-Cyanophenyl)quinoline-8-sulfonamide]" measured_endpoint=IC50 result="3780 nM"
compound=O=S(=O)(NCc1ccc(Cl)cc1)c1cccc2cccnc12 measured_endpoint=IC50 result="2180 nM"
compound="O=S(=O)(Nc1ccc(I)cc1)c1cccc2cccnc12 [a8, N-(4-Iodophenyl)quinoline-8-sulfonamide]" measured_endpoint=IC50 result="1150 nM"
compound=O=S(=O)(NCc1cccc(Cl)c1)c1cccc2cccnc12 measured_endpoint=IC50 result="1950 nM"
compound=O=S(=O)(NCC1CCCCC1)c1cccc2cccnc12 measured_endpoint=IC50 result="1360 nM"
compound=O=S(=O)(NCc1ccccc1Cl)c1cccc2cccnc12 measured_endpoint=IC50 result="1920 nM"

Request: Read the entry COc1ccc(CNS(=O)(=O)c2cccc3cccnc23)cc1 and write its reported IC50.
Response: 1010 nM

----------
Listed below: fold decrease in potency against AChE values for each entry.
measured-target: AChE (Electrophorus electricus, UniProt O42275)
test-summary: Cholinesterase inhibition assay
Assay type: biochemical, electric eels
protocol-conditions: compared to the most potent compound (a11)

Here are 3 molecules together with their reported answers.
molecule="O=S(=O)(NCc1cccc(Cl)c1)c1cccc2cccnc12 [a5]" measured_target="AChE (Electrophorus electricus, UniProt O42275)" result="~4 fold"
molecule="O=S(=O)(Nc1ccc(I)cc1)c1cccc2cccnc12 [a8, N-(4-Iodophenyl)quinoline-8-sulfonamide]" measured_target="AChE (Electrophorus electricus, UniProt O42275)" result="~2 fold"
molecule="COc1ccc(CNS(=O)(=O)c2cccc3cccnc23)cc1 [a18]" measured_target="AChE (Electrophorus electricus, UniProt O42275)" result="2 fold"

We now examine a further molecule.
Request: Supply recorded fold decrease in potency against AChE for O=S(=O)(NCc1ccc(Cl)cc1)c1cccc2cccnc12 [a4] here.
Response: ~4 fold

----------
measured-target: AChE (Electrophorus electricus, UniProt O42275)
test-summary: Cholinesterase inhibition assay
Assay type: biochemical, electric eels
protocol-conditions: compared to the most potent compound (a11)
measured-endpoint: fold decrease in potency against AChE

Some solved cases for reference:
compound="Cc1ccc(F)c(CNS(=O)(=O)c2cccc3cccnc23)c1 [a2]" measured_endpoint="fold decrease in potency against AChE" result="~3 fold"
compound="O=S(=O)(NCc1ccccc1Cl)c1cccc2cccnc12 [a16]" measured_endpoint="fold decrease in potency against AChE" result="~4 fold"

Request: Assign fold decrease in potency against AChE to the following record: N#Cc1ccc(NS(=O)(=O)c2cccc3cccnc23)cc1 [a9, N-(4-Cyanophenyl)quinoline-8-sulfonamide]
Response: 7 fold

Request: Read the entry O=S(=O)(NCc1ccc(Cl)cc1Cl)c1cccc2cccnc12 [a15] and write its reported fold decrease in potency against AChE.
Response: ~2.5 fold

Request: Name the recorded fold decrease in potency against AChE of the item O=S(=O)(Nc1cccc(I)c1)c1cccc2cccnc12 [a1, N-(3-Iodophenyl)quinoline-8-sulfonamide] in your answer.
Response: ~2 fold

Data origin: paper PMC10941260
